For each of the molecules below, state its Inhibition.
# Test system: Klebsiella pneumoniae
# study-conditions: Concentration 20 uM; ASSAY_TEST Inhibition of Bacterial Growth; detection method Absorption (OD600); MEDIA CAMHB; plate type 384well; NBS; CORNING #3640; time 18 hr
# Description: Antibacterial activity against Klebsiella pneumoniae MDR ATCC 70063 (CO-ADD:GN_003); MIC in CAMBH media using NBS plates, by OD(600)
Potency and affinity values are given separately.
Answers are plain numbers, in %.

Some entries whose results are on file:
INSERT INTO assay_data (molecule, assayed_target, unit_of_measurement, numeric_readout) VALUES
  ('Cl.OC(CCN1CCCC1)(c1ccccc1)C1CCCCC1 (stereo not given) [PROCYCLIDINE HYDROCHLORIDE]', 'Klebsiella pneumoniae', '%', 8.43),
  ('CN(C)CCOC(C)(c1ccccc1)c1ccccn1.O=C(O)CCC(=O)O (stereo not given) [DOXYLAMINE SUCCINATE]', 'Klebsiella pneumoniae', '%', 9.97),
  ('CCOC(=O)c1ccc(OC(=O)CCCCCN=C(N)N)cc1.CS(=O)(=O)O', 'Klebsiella pneumoniae', '%', 15.95),
  ('Nc1c2c(nc3c1CCC3)CCCC2', 'Klebsiella pneumoniae', '%', 15),
  ('O=c1c(O[C@@H]2O[C@H](CO)[C@H](O)[C@H](O)[C@H]2O)c(-c2ccc(O)c(O)c2)oc2cc(O)cc(O)c12 [HYPEROSIDE]', 'Klebsiella pneumoniae', '%', 17.1),
  ('CN(C)CCCSc1ccccc1NC(=O)/C=C/c1ccccc1.Cl.O', 'Klebsiella pneumoniae', '%', 18.81),
  ('COc1ccc2cc([C@H](C)C(=O)[O-])ccc2c1.[Na+] [NAPROXEN SODIUM]', 'Klebsiella pneumoniae', '%', 13.03),
  ('N#Cc1ccc(C(c2ccc(C#N)cc2)n2cncn2)cc1', 'Klebsiella pneumoniae', '%', 9.79);

Please supply Inhibition for each of the following items, keeping them in order.
1. O=C(O)COCCN1CCN([C@H](c2ccccc2)c2ccc(Cl)cc2)CC1
2. Cn1nnc2c(C(N)=O)ncn2c1=O [TEMOZOLOMIDE]

1. 20.22
2. 7.88
